assay: reduced viability of SK-BR-3 breast cancer cells – cell-based, 24 h, human, pilot screen (AID 572); details: SK-BR-3 viability, CellTiter-Glo luminescence, at 10 µM, stronger effect = lower value;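 also: compound exposure lasted between 18 and 24 h rather than exactly 24 h; 100% = carrier-treated control wells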
Endpoint Label: viability (%)
Write the value in % as a bare number.

- Compound: "O=C(CSc1ccc2nnc(-c3ccccc3)n2n1)N1CCN(c2ccccc2)CC1"
  viability [%]: 93.5
- Compound: "O=C(Nc1nnc(N2CCCCCC2)s1)c1cc(-c2ccc(Br)cc2)on1"
  viability [%]: 97
- Compound: "CCOC(=O)C1CCCN(C(=O)c2cn(C)c(=O)c3cc(OC)c(OC)cc23)C1 (configuration not stated)"
  viability [%]: 96.5

So what does the record say about viability for CCCNc1nc(N2CCOCC2)nc(N2CCOCC2)n1 ?
97.5

Same for CCOCCCNC(=O)C(c1ccc(C)cc1)N(Cc1ccc2c(c1)OCO2)C(=O)c1cnccn1 (configuration not stated)
98

###

Reported growth inhibition values are given for each entry in this list.
assay: S. cerevisiae growth inhibition in restrictive medium, OD615, pilot screen, restrictive growth control, yeast lifespan reduction project (AID 706); details: OD615, 48 h, at 10 µM, stronger effect = higher value;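 also: modified DeaD lifespan yeast strain shifted to restrictive glucose medium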
Write the value in % as a bare number.

As a guide, the following entries are already answered.
- Compound: "COc1ccccc1NC(=O)c1ccc(S(=O)(=O)N2CCCC2)cc1"
  growth inhibition / %: -5.9
- Compound: "CCN1C(=O)c2cccc3c(NC(=O)c4ccc(S(=O)(=O)N(C)C)cc4)ccc1c23"
  growth inhibition / %: -15.2
- Compound: "CCCCn1c(CN2CCN(c3ccccc3)CC2)nc2c1c(=O)n(C)c(=O)n2C"
  growth inhibition / %: 1.55
- Compound: "O=C(O)c1ccc(Cl)c2c1C1C=CCC1C(c1ccccn1)N2 (stereo unspecified)"
  growth inhibition / %: 8.06
- Compound: "O=S(=O)(c1ccccc1)N1CCN(S(=O)(=O)c2ccccc2)C1"
  growth inhibition / %: 6.15
- Compound: "O=C(NC(=O)c1cccc(F)c1)OC[C@@H]1CCCN2CCCC[C@H]12"
  growth inhibition / %: -9.63

So what does the record say about growth inhibition for CC1=C(C(=O)OC(C)C)C(c2ccccn2)n2ncnc2N1 (stereo unspecified) ?
-3.54

Same for C#CCSc1nnc(-c2c[nH]c3ccccc23)n1C
8.42

Same for C=CCn1c(SCCOC)nc2c1c(=O)[nH]c(=O)n2C
0.43

Same for C(/CCc1ccccc1)=N\n1cnnc1
1.89

Same for Cc1nn(-c2ccc(F)cc2)c2c1cc(C#N)c1nc3ccccc3n12
8.66

###

test: MRP1 drug-resistance reversers in H69AR cells – cell-based, doxorubicin co-treatment, pilot screen (AID 601); conditions: H69AR cells + 2 uM doxorubicin, CellTiter-Glo, 72 h; measured here: viability with 2 uM doxorubicin; at 10 µM; stronger effect = lower value
Reported viability values are given for each entry in this list.
Write the value in % as a bare number.

As a guide, the following entries are already answered.
- Compound: "Clc1ss/c(=N\\c2ccccn2)c1Cl"
  viability [%]: 72.3
- Compound: "COc1ccc(NC(=O)CSc2nnc(Cc3cccn3C)n2-c2ccc(F)cc2)cc1OC"
  viability [%]: 94
- Compound: "COc1cc2c(cc1OC)-c1nnc(C)n1C1(CCCC1)C2"
  viability [%]: 98.3
- Compound: "O=C(Nc1cccc(F)c1)C1C2C=CC3(CN(CCCN4CCOCC4)C(=O)C13)O2 (stereo not given)"
  viability [%]: 83.1
- Compound: "COc1ccc(N(C)C(=O)CCS(=O)(=O)c2cccc3nonc23)c(OC)c1"
  viability [%]: 93.9

So what does the record say about viability for O=C1CCCC2=C1C(c1cccc(Br)c1)n1nc(-c3ccco3)nc1N2 (stereo not given) ?
100

Same for COc1cc(C(=O)Nc2cccc(-c3nncn3C)c2)cc(OC)c1OC
81.2

Same for CCOC(=O)Cn1c(=O)c(-c2ccccc2N)nc2ccccc21
81.7
